Tested on: HOP-62 multicell spheroids with HUVEC/MSC, viability
Assay: Anticancer human tumor HOP-62 cell line growth inhibition [KRAS2];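 also: viability read after a week of compound exposure; 100% = DMSO vehicle-treated spheroids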
Protocol conditions: second compound 0.1 µM; first compound 0.316 µM; stronger effect = lower value
Kindly supply the reported viability, T/C values for the records listed here.
One number for each entry, in %.

[
  {
    "Molecule": "CC1COCCN1c1cc(-c2ccnn2C)c2ccnc(-c3ccn[nH]3)c2n1 (stereo not given) + C=CC(=O)N1CCN(c2nc(=O)n(-c3c(C)ccnc3C(C)C)c3nc(-c4c(O)cccc4F)c(F)cc23)C(C)C1",
    "Uom": "%",
    "Measured": 11.7
  },
  {
    "Molecule": "O=C(c1cc(Cc2n[nH]c(=O)c3ccccc23)ccc1F)N1CCN(C(=O)C2CC2)CC1 + CC1OCC2(CCN(c3cnc(Sc4ccnc(N)c4Cl)c(N)n3)CC2)C1N",
    "Uom": "%",
    "Measured": 80.8
  },
  {
    "Molecule": "Cn1nccc1Nc1nccc(-c2cc3c(s2)C(C)(C)N(CCN2CCOCC2)C3=O)n1 + CNCc1ccccc1-c1csc(C(C)Nc2nc(C)nc3cc(OC)c(OC)cc23)c1",
    "Uom": "%",
    "Measured": 92.8
  },
  {
    "Molecule": "COC(=O)c1ccc2c(C(=Nc3ccc(N(C)C(=O)CN4CCN(C)CC4)cc3)c3ccccc3)c(O)[nH]c2c1 + COc1cc2nc(C)nc(NC(C)c3cc(N)cc(C(F)(F)F)c3)c2cc1OC1CCOC1",
    "Uom": "%",
    "Measured": 53
  }
]

Note: attention shifts to another entry.
Any idea what its viability, T/C is? The molecule is CC1COCCN1c1cc(-c2ccnn2C)c2ccnc(-c3ccn[nH]3)c2n1 (stereo not given) + COc1cc2nc(C)nc(NC(C)c3cc(N)cc(C(F)(F)F)c3)c2cc1OC1CCOC1
6.53
